- System: Campylobacter coli
- MEASUREMENT_DESCRIPTION: Antibacterial activity against bla gene-positive and nitrocefin reaction-positive beta-lactamase harboring Campylobacter coli isolate P1826 by NCCLS agar doubling dilution method
- Type: functional
I'd be grateful if you could share measured MIC for these entries.
Please don't drop the unit; write it after the number.

MIC for C[C@@H](O)[C@H]1C(=O)N2C(C(=O)O)=C(SCCNC=N)C[C@H]12 [IMIPENEM ANHYDROUS] ? 0.03 µg/mL

MIC for C[C@@H](O)[C@H]1C(=O)N2C(C(=O)O)=C(S[C@@H]3CN[C@H](C(=O)N(C)C)C3)[C@H](C)[C@H]12 [MEROPENEM] ? 0.06 µg/mL

MIC for CC1(C)S[C@@H]2[C@H](NC(=O)Cc3ccccc3)C(=O)N2[C@H]1C(=O)O [PENICILLIN G] ? 128 µg/mL

MIC for CC1(C)S[C@@H]2[C@H](NC(=O)[C@H](N)c3ccc(O)cc3)C(=O)N2[C@H]1C(=O)O [AMOXICILLIN] ? 128 µg/mL
